assay: NCI Yeast Anticancer Drug Screen. Data for the mlh1 rad18 strain (AID 175); details: S. cerevisiae mlh1 rad18 strain growth inhibition; at 50.0 µM
The panel holds about 79,000 compounds, 15% with a hit somewhere; the sample as a whole holds those more often. Active and inactive are the calls of the source. Rule as the data show it: active = growth inhibition above about 70%; inactive = the rest.
Respond using exactly one of the listed classes: active, inactive

Consider the worked cases shown below.
>>> print(df.to_string())
                                   compound  category_label
0  C[C@]12Cc3sc(N)nc3C[C@@H]1CC[C@@H]1[C@@H]2CC[C@@]2(C)[C@H]1CC[C@]2(C)O        inactive
1  CN1C2CCC1c1c([nH]c3ccccc13)C2 (centres undefined)        inactive
2  COc1ccc(NC2Oc3cc4c(cc3C(c3cc(OC)c(OC)c(OC)c3)C2C)OCO4)cc1 (centres undefined)        inactive
3                       CC1=NNC(=O)C1(Br)Br        inactive

Ask: Lab log entry: CN1CCC2=C(c3ccccc3)c3ccccc3C2C1 (centres undefined) — outcome as called in the assay?
Result: inactive

Ask: Same read-out for C[C@]12CC[C@H]3[C@@H](CCC4=CC(=O)CC[C@@]43C)[C@@H]1CC[C@@H]2OC(=O)c1cccc2c(=O)c3ccccc3[nH]c12 ?
Result: inactive

Ask: Same read-out for C1=C[N-]c2c3c(ccc2=C1)=CC=C[N-]3.C1=C[N-]c2c3c(ccc2=C1)=CC=C[N-]3.F[P-](F)(F)(F)(F)F.[Cu+2] ?
Result: active

Ask: Same read-out for O=C(O)c1cc(CCl)ccc1O ?
Result: inactive

Reference source: PubChem BioAssay (NCI)
